# Tested on: Vero E6 infected with SARS-CoV-2
# ASSAY_NAME: SARS-CoV-2 infection rate relative to infected DMSO; higher = more infection, active = 60 or less
# CONDITION_PARAMETERS: 24 h
MEASURED_PROPERTY: SARS-CoV-2 infection rate

Look at this molecule and give its reported SARS-CoV-2 infection rate. O=C(O)CNC(=O)C1C(=O)N(C2CCCCC2)C(=O)N(C2CCCCC2)C1=O [daprodustat] (10 µM)
81.5% (inactive)

###

Listed next: entries and their corresponding inhibition of SARS-CoV-2 cytopathic effect.
# System: Vero E6 infected with SARS-CoV-2
# ASSAY_NAME: inhibition of SARS-CoV-2 cytopathic effect; higher = more antiviral protection, active = above 15
# CONDITION_PARAMETERS: 833.33 nM; 48 h
Numbers only; they are read as %.

// solved cases for inhibition of SARS-CoV-2 cytopathic effect follow
# MOLECULE, VALUE_OBSERVED
rows = [
    ("CC(=O)O[C@H]1CC[C@@]2(C)C(=CC[C@@H]3[C@@H]2CC[C@]2(C)C(c4cccnc4)=CC[C@@H]32)C1 [abiraterone-acetate]", -1.43),
    ("Cc1cc2nc3c(=O)[nH]c(=O)nc-3n(C[C@H](O)[C@H](O)[C@H](O)CO)c2cc1C", 0.03),
    ("CCCn1c(=O)c2nc(-c3ccccc3)[nH]c2n(CCC)c1=O", -3.56),
]

# context switch: different molecule, same inhibition of SARS-CoV-2 cytopathic effect
Which inhibition of SARS-CoV-2 cytopathic effect is listed for Nc1nc2c(ncn2[C@@H]2O[C@H](CO)[C@@H](O)[C@H]2O)c(=O)[nH]1 ?
-1.53

###

# Tested on: Vero E6 infected with SARS-CoV-2
# ASSAY_NAME: inhibition of SARS-CoV-2 cytopathic effect; higher = more antiviral protection, active = above 15
# CONDITION_PARAMETERS: 1 nM; 48 h
Each item that follows carries a reported inhibition of SARS-CoV-2 cytopathic effect.

# COMPOUND, EXPERIMENTAL_TARGET, VALUE_OBSERVED
rows = [
    ("Clc1ccc(COC(Cn2ccnc2)c2ccc(Cl)cc2Cl)c(Cl)c1 (stereo not drawn) [miconazole]", "Vero E6 infected with SARS-CoV-2", "-1.92% (inactive)"),
]

I am curious: what inhibition of SARS-CoV-2 cytopathic effect value has been reported for NC(N)=Nc1nc(CSCC/C(N)=N/S(N)(=O)=O)cs1 [Famotidine] ?
1.28% (inactive)

What value of inhibition of SARS-CoV-2 cytopathic effect has been recorded for this entry: COc1cccc(N2CCN(C3=Nc4c(F)cccc4[C@H](CC(=O)O)N3c3cc(C(F)(F)F)ccc3OC)CC2)c1 [letermovir]
-1.18% (inactive)

###

# Tested on: Vero E6 infected with SARS-CoV-2
# ASSAY_NAME: SARS-CoV-2 infection rate relative to infected DMSO; higher = more infection, active = 60 or less
# CONDITION_PARAMETERS: 24 h
MEASURED_PROPERTY: SARS-CoV-2 infection rate (%)
Form entry: value (%) — number only.

These recorded examples may help you get a feel for the data.
# COMPOUND, EXPERIMENTAL_TARGET, SARS-CoV-2 infection rate [%]
data = [
    ("CNS(=O)(=O)Nc1nccc(Cc2c(C)c3ccc(Oc4ncccn4)cc3oc2=O)c1F (0.833333 µM)", "Vero E6 infected with SARS-CoV-2", 113),
    ("CO[C@@H]1[C@@H](OC(N)=O)[C@@H](O)[C@H](Oc2ccc3c(O)c(NC(=O)c4ccc(O)c(CC=C(C)C)c4)c(=O)oc3c2C)OC1(C)C [novobiocin] (10 µM)", "Vero E6 infected with SARS-CoV-2", 95),
    ("COc1cc(OC)c(OC)cc1C=O [asaraldehyde] (10 µM)", "Vero E6 infected with SARS-CoV-2", 110),
    ("Cc1ccsc1/C=C/C1=NCCCN1C [morantel] (10 µM)", "Vero E6 infected with SARS-CoV-2", 99.5),
]

Requested read-out: SARS-CoV-2 infection rate. Entry: COc1ccccc1OCC(O)CNC(C)C (stereo not given) [moprolol] (10 µM)
100

###

Listed molecules paired with reported SARS-CoV-2 infection rate
# System: Vero E6 infected with SARS-CoV-2
# ASSAY_NAME: SARS-CoV-2 infection rate relative to infected DMSO; higher = more infection, active = 60 or less
# CONDITION_PARAMETERS: 24 h

Some solved cases for reference:
# MOLECULE, SARS-CoV-2 infection rate
measured = [
    ("COc1ccnc(C[S+]([O-])c2nc3cc(OC(F)F)ccc3[nH]2)c1OC (stereo not drawn) [pantoprazole] (10 µM)", "104% (inactive)"),
    ("CC(C)(C)NCC(O)COc1cc(Cl)ccc1Cl (stereo not drawn) [cloranolol] (10 µM)", "100% (inactive)"),
    ("CCNC(=O)CCC/C=C\\C[C@@H]1[C@@H](/C=C/[C@@H](O)CCc2ccccc2)[C@H](O)C[C@@H]1O [bimatoprost] (10 µM)", "103% (inactive)"),
    ("CCNC(=O)Nc1ccc(-c2nc3c(c(N4CCOC[C@@H]4C)n2)CCN(C2COC2)C3)cc1 (0.833333 µM)", "103% (inactive)"),
    ("CC(=O)OC[C@H]1O[C@@H]([S-])[C@H](OC(C)=O)[C@@H](OC(C)=O)[C@@H]1OC(C)=O.CCP(CC)CC.[Au+] [auranofin] (0.833333 µM)", "79% (inactive)"),
    ("COc1ccc(S(=O)(=O)Nc2nc(-c3cccc([N+](=O)[O-])c3)cs2)cc1OC (10 µM)", "107% (inactive)"),
]

Item O=[N+]([O-])c1ccc(O)c([N+](=O)[O-])c1 [2,4-dinitrophenol] (10 µM) with Vero E6 infected with SARS-CoV-2 - SARS-CoV-2 infection rate?
97.5% (inactive)

Query SARS-CoV-2 infection rate on Vero E6 infected with SARS-CoV-2 for COc1ccc(Nc2ccn(-c3ccccc3)n2)cc1 (10 µM)
87.5% (inactive)

###

# System: Vero E6 infected with SARS-CoV-2
# ASSAY_NAME: SARS-CoV-2 infection rate relative to infected DMSO; higher = more infection, active = 60 or less
# CONDITION_PARAMETERS: 24 h
MEASURED_PROPERTY: SARS-CoV-2 infection rate (%)
Write the answer as a number in %, unit excluded.

Some molecules with recorded SARS-CoV-2 infection rate:
# MOLECULE, EXPERIMENTAL_TARGET, SARS-CoV-2 infection rate, %
data = [
    ("C[C@H](CSC(=O)c1ccccc1)C(=O)N1C[C@@H](Sc2ccccc2)C[C@H]1C(=O)O [zofenopril-calcium] (10 µM)", "Vero E6 infected with SARS-CoV-2", 104),
    ("CN(C)C(=S)SC(=S)N(C)C [tetramethylthiuram-monosulfide] (10 µM)", "Vero E6 infected with SARS-CoV-2", 116),
]

Next, consider the following molecule.
Which SARS-CoV-2 infection rate reading was recorded for the molecule NC[C@@H]1CC[C@@H](N)[C@@H](O[C@H]2[C@H](O)[C@@H](O[C@H]3O[C@H](CO)[C@@H](O)[C@H](N)[C@H]3O)[C@H](N)C[C@@H]2N)O1 [dibekacin] (10 µM) ?
103

###

# System: Vero E6 infected with SARS-CoV-2
# ASSAY_NAME: morphology score (similarity to uninfected cells); higher = more like uninfected cells
# CONDITION_PARAMETERS: 24 h
Lab note: compare morphology score against 0.1. Equal or greater, write yes. Smaller, write no.

Use the examples below as a reference point.
# COMPOUND, EXPERIMENTAL_TARGET, CLASS_LABEL
measured = [
    ("CSc1ccc(OCc2ncc([N+](=O)[O-])n2C)cc1 [fexinidazole] (10 µM)", "Vero E6 infected with SARS-CoV-2", "no"),
    ("C[C@](N)(Cc1ccc(O)c(O)c1)C(=O)O [methyldopa] (10 µM)", "Vero E6 infected with SARS-CoV-2", "no"),
    ("O=C(O)COCCN1CCN(C(c2ccccc2)c2ccc(Cl)cc2)CC1 (centres undefined) [cetirizine] (10 µM)", "Vero E6 infected with SARS-CoV-2", "yes"),
    ("N#Cc1ccc(N2N=C3c4ccc(C(=O)O)cc4CC[C@@H]3[C@@H]2C2CCCC2)cc1Cl (10 µM)", "Vero E6 infected with SARS-CoV-2", "no"),
    ("C[C@H](Nc1cc(NS(=O)(=O)N2CCC2)nc(SCc2cccc(F)c2F)n1)[C@@H](O)CO (10 µM)", "Vero E6 infected with SARS-CoV-2", "yes"),
]

// next entry
Quick check: does O=C(O)c1ccccc1NCCc1ccccc1 [tromaril] (10 µM) have morphology score greater than or equal to 0.1?
no
